biological target: UniProt:P52333
Sequence (P52333 512-1124): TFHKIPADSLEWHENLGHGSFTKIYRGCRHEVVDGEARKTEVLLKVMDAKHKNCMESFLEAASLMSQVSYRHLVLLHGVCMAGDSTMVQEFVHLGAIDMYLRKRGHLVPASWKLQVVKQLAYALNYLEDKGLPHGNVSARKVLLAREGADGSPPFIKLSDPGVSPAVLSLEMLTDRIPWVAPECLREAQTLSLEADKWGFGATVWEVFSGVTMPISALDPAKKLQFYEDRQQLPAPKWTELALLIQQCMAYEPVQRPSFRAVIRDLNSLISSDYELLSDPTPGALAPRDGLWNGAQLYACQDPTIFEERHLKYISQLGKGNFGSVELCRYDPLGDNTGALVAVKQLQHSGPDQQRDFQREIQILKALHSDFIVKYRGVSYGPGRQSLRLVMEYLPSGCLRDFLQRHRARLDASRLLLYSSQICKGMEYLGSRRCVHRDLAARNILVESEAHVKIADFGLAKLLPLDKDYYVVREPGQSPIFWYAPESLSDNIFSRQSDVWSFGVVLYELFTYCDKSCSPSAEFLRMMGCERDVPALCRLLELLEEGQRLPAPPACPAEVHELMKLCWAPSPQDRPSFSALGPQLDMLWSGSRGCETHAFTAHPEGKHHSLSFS
Measurement Kind: IC50 (nM)

compound=N#CC[C@H]1CC[C@H](n2c(CC(=O)N3CC(O)C3)nc3cnc4[nH]ccc4c32)CC1 tested_on=UniProt:P52333 measured_value=540
compound=N#CC[C@H]1CC[C@H](n2c(-c3cn[nH]c3)nc3cnc4[nH]ccc4c32)CC1 tested_on=UniProt:P52333 measured_value=146
compound=N#CC[C@H]1CC[C@H](n2c(CC(=O)Nc3ccncc3)nc3cnc4[nH]ccc4c32)CC1 tested_on=UniProt:P52333 measured_value=50.5
compound=N#CC[C@H]1CC[C@H](n2c(-c3ccc(C(=O)c4ccc(CO)cc4)cc3)nc3cnc4[nH]ccc4c32)CC1 tested_on=UniProt:P52333 measured_value=431

I. N#CC[C@H]1CC[C@H](n2c(CC(=O)NCC(O)c3ccccc3)nc3cnc4[nH]ccc4c32)CC1 (stereo partly shown)
II. Cc1cc(-c2nc3cnc4[nH]ccc4c3n2[C@H]2CC[C@H](CC#N)CC2)[nH]n1
III. N#CC[C@H]1CC[C@H](n2c(COC(=O)NCC3CCCCC3)nc3cnc4[nH]ccc4c32)CC1
Task: Arrange the 3 compounds by rising IC50, starting with the smallest. Sort and list the labels as requested.
Result: II, I, III

1. N#CC[C@H]1CC[C@H](n2c(-c3cnc(N)nc3)nc3cnc4[nH]ccc4c32)CC1
2. N#CC[C@H]1CC[C@H](n2c(CC(=O)N3CCC(C#N)CC3)nc3cnc4[nH]ccc4c32)CC1
3. N#CC[C@H]1CC[C@H](n2c(CC(=O)NC3CCCCC3)nc3cnc4[nH]ccc4c32)CC1
Task: Please rank these compounds by IC50 in descending order. Sort and list the labels as requested.
Result: 2, 1, 3
(2: 204 nM, 1: 127 nM, 3: 32.7 nM)

a. N#CC[C@H]1CC[C@H](n2c(CNC(=O)NCC3CCCCC3)nc3cnc4[nH]ccc4c32)CC1
b. CC(C)c1noc(=O)n1Cc1nc2cnc3[nH]ccc3c2n1[C@H]1CC[C@H](CC#N)CC1
c. N#CC[C@H]1CC[C@H](n2c(CC(=O)Nc3ccccc3)nc3cnc4[nH]ccc4c32)CC1
Task: Please rank these compounds by IC50 in descending order. Sort and list the labels as requested.
Result: b, a, c
(b: 2690 nM, a: 368 nM, c: 20.5 nM)

====

biological target: Tyk2-JH1JH2 (Homo sapiens (Human), UniProt P29597, C1142A/C936A); assay: Enzymatic inhibition assay (RapidFire HTMS), Tyk2; conditions: 50 μM ATP, 200 μM substrate
Sequence (P29597 580-1182 C936A/C1142A): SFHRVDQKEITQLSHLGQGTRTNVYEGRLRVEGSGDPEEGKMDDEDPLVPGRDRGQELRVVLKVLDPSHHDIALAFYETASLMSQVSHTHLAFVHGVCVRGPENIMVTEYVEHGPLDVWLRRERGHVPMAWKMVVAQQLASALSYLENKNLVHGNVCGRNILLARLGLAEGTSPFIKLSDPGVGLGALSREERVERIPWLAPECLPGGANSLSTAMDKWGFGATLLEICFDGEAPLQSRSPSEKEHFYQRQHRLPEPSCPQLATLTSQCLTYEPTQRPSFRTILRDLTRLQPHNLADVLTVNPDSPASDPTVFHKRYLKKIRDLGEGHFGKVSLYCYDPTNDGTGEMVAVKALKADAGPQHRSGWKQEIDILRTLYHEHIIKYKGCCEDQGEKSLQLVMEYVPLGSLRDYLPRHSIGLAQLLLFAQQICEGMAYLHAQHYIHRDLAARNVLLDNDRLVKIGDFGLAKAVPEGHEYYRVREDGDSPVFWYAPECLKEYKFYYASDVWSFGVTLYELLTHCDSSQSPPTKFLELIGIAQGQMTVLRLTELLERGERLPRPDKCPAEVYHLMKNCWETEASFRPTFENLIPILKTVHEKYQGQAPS
Measurement Kind: IC50 (µM)

smiles_input=N#CC[C@H]1CC[C@H](n2c(CC(=O)NCC34CC5CC(CC(C5)C3)C4)nc3cnc4[nH]ccc4c32)CC1 measured_value=0.0079
smiles_input=CC(C)(O)CNC(=O)Cc1nc2cnc3[nH]cc(F)c3c2n1[C@H]1CC[C@H](CC#N)CC1 measured_value=0.0161

a. CC(C)/C(=N/O)NCc1nc2cnc3[nH]ccc3c2n1[C@H]1CC[C@H](CC#N)CC1
b. CC(C)COC(=O)NCc1nc2cnc3[nH]ccc3c2n1[C@H]1CC[C@H](CC#N)CC1
Task: Select one. Lower IC50: a or b Your answer should be the label attached to the chosen record.
Result: a
